Every entry's value here was drawn from patent US20260256925A1.

- studySystem: ER (Homo sapiens, UniProt P03372)
- Construct: endogenous in cells; probably T47D or MCF-7
- Sequence (P03372 1-595): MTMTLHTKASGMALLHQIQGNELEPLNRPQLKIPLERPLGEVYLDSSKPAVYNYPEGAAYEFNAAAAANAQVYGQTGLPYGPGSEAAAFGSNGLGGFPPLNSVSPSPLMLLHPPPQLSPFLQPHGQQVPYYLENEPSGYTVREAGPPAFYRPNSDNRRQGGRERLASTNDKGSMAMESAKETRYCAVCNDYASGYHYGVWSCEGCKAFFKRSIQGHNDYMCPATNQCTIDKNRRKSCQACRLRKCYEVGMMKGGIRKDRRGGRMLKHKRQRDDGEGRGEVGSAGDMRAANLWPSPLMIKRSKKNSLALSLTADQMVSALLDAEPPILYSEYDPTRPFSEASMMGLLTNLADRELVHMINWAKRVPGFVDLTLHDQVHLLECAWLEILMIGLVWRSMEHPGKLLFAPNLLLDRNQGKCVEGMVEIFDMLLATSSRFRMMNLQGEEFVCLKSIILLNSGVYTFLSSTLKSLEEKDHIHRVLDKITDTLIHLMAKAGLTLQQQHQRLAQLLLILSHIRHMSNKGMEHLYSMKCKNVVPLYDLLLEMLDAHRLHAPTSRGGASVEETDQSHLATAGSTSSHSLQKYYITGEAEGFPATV
- protocolSummary: In-cell Western (ICW) ER degradation assay in T47D cells
- Type: cell-based
- conditionLabel: T47D cells, 16 hrs
- Protocol: ERa degradative activity of compounds can be assessed in MCF-7 and T47D Cells. MCF-7 and T47D cell are seeded and are subsequently treated with the compounds at certain concentrations (e.g., 0.02 to 300 nM). DMSO can be used as vehicle control. Cells are fixed and are blocked with Intercept (PBS) Blocking Buffer (e.g., Li—COR, Odyssey Blocking Buffer), and are stained with ER (e.g., 1:500, Cell signaling) primary antibody for overnight at cold room. […]
A collection of molecules and their measured DC50

Please review the following examples before continuing.
Inquiry: Bench note: what DC50 did C[C@H]1Cc2c(ccc3[nH]ncc23)[C@@H](c2ccc(N3CCC(CN4CCN5c6cc7c(cc6OC[C@H]5C4)C(=O)N([C@@H]4CCC(=O)NC4=O)C7)CC3)nc2)N1CC(F)(F)F (stereo in doubt) show?
Reply text: 10 to 100 nM

Inquiry: Record: `C[C@@H]1Cc2c(ccc3[nH]ncc23)[C@@H](c2ccc(N3CCC4(CC3)CC(CN3CCC5(CC3)COc3cc6c(cc35)CN([C@H]3CCC(=O)NC3=O)C6=O)C4)cn2)N1CC1(F)CC1`
Reply text: < 1 nM

Inquiry: Also check C[C@H]1Cc2c(ccc3[nH]ncc23)[C@H](c2ccc(N3CCC4(CC3)CC(CN3CCN(c5ccc(C(=O)NC6CCC(=O)NC6=O)nc5)CC3)C4)cn2)N1CC(F)(F)F (stereo in doubt)
Reply text: < 1 nM

Inquiry: Next: `C[C@@H]1Cc2c(ccc3[nH]ncc23)[C@@H](c2ccc(N3CCC4(CC3)CC(CN3CCN5c6cc7c(cc6OC[C@H]5C3)C(=O)N([C@@H]3CCC(=O)NC3=O)C7)C4)cn2)N1CC1(F)CC1`
Reply text: < 1 nM

Next up:
Inquiry: Using the record for `C[C@@H]1Cc2c(ccc3[nH]ncc23)[C@@H](c2ccc(N3CCC4(CC3)CC(CN3CCN5c6ccc7c(c6OC[C@H]5C3)CN([C@H]3CCC(=O)NC3=O)C7=O)C4)cn2)N1CC1(F)CC1` , report its DC50.
Reply text: < 1 nM
